I'd be grateful if you could share measured pKd for these entries.
Biological target: T1, monkey GPC3-His protein (monkey)
T1 construct: Bought recombinant protein; also called monkey GPC3 protein
Experiment: SPR, antibody captured on Protein A chip, monkey GPC3-His analyte;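 further: run at 25 °C with 240 s association and up to 600 s dissociation, double-referenced, kinetics fitted to a 1:1 Langmuir binding model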
One number for each entry, as −log10 of the molar value.

// worked examples, pKd included
- binder: "F3.54.12 (antibody, human IgG1, kappa, V domains shown, Human-murine chimeric antibody) VH: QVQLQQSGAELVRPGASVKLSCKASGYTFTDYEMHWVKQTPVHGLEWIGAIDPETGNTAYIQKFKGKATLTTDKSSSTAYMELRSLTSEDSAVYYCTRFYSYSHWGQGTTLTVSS VL: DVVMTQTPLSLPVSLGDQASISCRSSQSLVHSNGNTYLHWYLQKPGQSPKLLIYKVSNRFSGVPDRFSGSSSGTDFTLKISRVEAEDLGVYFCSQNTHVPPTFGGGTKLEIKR"
  pKd: 8.66
- binder: "F1.111.11 (antibody, human IgG1, kappa, V domains shown, Human-murine chimeric antibody) VH: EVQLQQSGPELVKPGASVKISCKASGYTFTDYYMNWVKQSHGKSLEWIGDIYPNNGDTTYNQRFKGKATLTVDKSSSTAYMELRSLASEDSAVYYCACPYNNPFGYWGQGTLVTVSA VL: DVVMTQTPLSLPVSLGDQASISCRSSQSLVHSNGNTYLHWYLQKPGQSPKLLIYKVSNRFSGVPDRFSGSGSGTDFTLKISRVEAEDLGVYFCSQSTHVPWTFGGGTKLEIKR"
  pKd: 8.33
- binder: "F2.23.8 (antibody, human IgG1, kappa, V domains shown, Human-murine chimeric antibody) VH: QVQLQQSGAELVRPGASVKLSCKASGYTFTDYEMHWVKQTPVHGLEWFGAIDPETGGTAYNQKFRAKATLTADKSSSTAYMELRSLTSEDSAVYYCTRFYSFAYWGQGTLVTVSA VL: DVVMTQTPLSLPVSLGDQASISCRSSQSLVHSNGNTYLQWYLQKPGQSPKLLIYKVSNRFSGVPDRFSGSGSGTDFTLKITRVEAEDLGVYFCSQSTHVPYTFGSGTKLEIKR"
  pKd: 7.87
- binder: "F1.41.17 (antibody, human IgG1, kappa, V domains shown, Human-murine chimeric antibody) VH: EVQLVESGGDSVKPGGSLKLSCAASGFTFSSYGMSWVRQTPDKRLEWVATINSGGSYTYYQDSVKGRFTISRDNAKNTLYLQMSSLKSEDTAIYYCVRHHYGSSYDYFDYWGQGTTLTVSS VL: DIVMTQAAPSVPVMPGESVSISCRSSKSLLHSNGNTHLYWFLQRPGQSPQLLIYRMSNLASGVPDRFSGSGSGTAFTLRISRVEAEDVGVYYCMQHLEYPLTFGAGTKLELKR"
  pKd: 8.35

Let us examine a further case.
Query :: Could you share which pKd value was measured for F1.3.9 (antibody, human IgG1, kappa, V domains shown, Human-murine chimeric antibody) VH: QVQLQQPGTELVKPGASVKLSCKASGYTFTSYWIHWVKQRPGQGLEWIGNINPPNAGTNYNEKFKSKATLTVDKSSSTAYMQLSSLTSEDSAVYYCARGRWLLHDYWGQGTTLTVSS VL: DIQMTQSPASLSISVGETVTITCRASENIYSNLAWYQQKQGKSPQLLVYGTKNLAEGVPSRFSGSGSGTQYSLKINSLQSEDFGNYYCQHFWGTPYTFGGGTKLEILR ?
Result :: 8.91
